Assay: Pharmacokinetics, plasma and total colon tissue distribution in rats
Format: in vivo, male Wistar rats
Conditions: male, Wistar, po; Rat, 5 mg/kg p.o., Plasma
OBSERVED_PROPERTY: Tmax (h)

>  <CPD_SMILES>
C#Cc1cc(Nc2nccc(Oc3ccc(NC(=O)Nc4cc(C(C)(C)C)nn4-c4ccc(OC)cc4)c4ccccc34)n2)cc(C(=O)NCCN2CCOCC2)c1

>  <OBSERVED_PROPERTY>
Tmax

>  <RECORDED_NUMBER>
6

$$$$

---

Assay: Pharmacokinetics, plasma and total colon tissue distribution in rats
Format: in vivo, male Wistar rats
Conditions: male, Wistar, total colon tissue, po; Rat, 5 mg/kg p.o., Total colon
OBSERVED_PROPERTY: Cmax (ng/mL)

>  <CPD_SMILES>
C#Cc1cc(Nc2nccc(Oc3ccc(NC(=O)Nc4cc(C(C)(C)C)nn4-c4ccc(OC)cc4)c4ccccc34)n2)cc(C(=O)NCCN2CCOCC2)c1

>  <RECORDED_NUMBER>
2500

$$$$

---

// values below are reported % β-catenin induction
Tested on: β-catenin in d-U937 cells
Assay: (m) Accumulation of β catenin in d-U937 cells
Format: cell-based, human
Conditions: 5 μg/mL test compound
OBSERVED_PROPERTY: % β-catenin induction

>  <COMPOUND>
C#Cc1cc(Nc2nccc(Oc3ccc(NC(=O)Nc4cc(C(C)(C)C)nn4-c4ccc(C)cc4)c4ccccc34)n2)cc(C(=O)N[C@@H](C)CN2CCOCC2)c1 [Example 81]

>  <RESULT>
−3%

$$$$
>  <COMPOUND>
C#Cc1cc(Nc2nccc(Oc3ccc(NC(=O)Nc4cc(C(C)(C)C)nn4-c4ccc(OC)cc4)c4ccccc34)n2)cc(C(=O)NCCN2CCOCC2)c1 [Example 77]

>  <RESULT>
0%

$$$$
>  <COMPOUND>
C#Cc1cc(Nc2nccc(Oc3ccc(NC(=O)Nc4cc(C(C)(C)C)nn4-c4ccc(N(C)C)cc4)c4ccccc34)n2)cc(C(=O)NCCN2CCOCC2)c1 [Example 80]

>  <RESULT>
8%

$$$$

---

Tested on: β-catenin in d-U937 cells
Assay: (m) Accumulation of β catenin in d-U937 cells
Type: cell-based, human
Conditions: 1 μg/mL test compound
OBSERVED_PROPERTY: % β-catenin induction (%)

>  <MOLECULE>
C#Cc1cc(Nc2nccc(Oc3ccc(NC(=O)Nc4cc(C(C)(C)C)nn4-c4ccc(OC)cc4)c4ccccc34)n2)cc(C(=O)NCCN2CCOCC2)c1

>  <EXPERIMENTAL_TARGET>
β-catenin in d-U937 cells

>  <OBSERVED_PROPERTY>
% β-catenin induction

>  <RECORDED_NUMBER>
1

$$$$
>  <MOLECULE>
C#Cc1cc(Nc2nccc(Oc3ccc(NC(=O)Nc4cc(C(C)(C)C)nn4-c4ccc(N(C)C)cc4)c4ccccc34)n2)cc(C(=O)NCCN2CCOCC2)c1

>  <EXPERIMENTAL_TARGET>
β-catenin in d-U937 cells

>  <OBSERVED_PROPERTY>
% β-catenin induction

>  <RECORDED_NUMBER>
14

$$$$
>  <MOLECULE>
C#Cc1cc(Nc2nccc(Oc3ccc(NC(=O)Nc4cc(C(C)(C)C#N)nn4-c4ccc(C)cc4)c4ccccc34)n2)cc(C(=O)NCCN2CCOCC2)c1

>  <EXPERIMENTAL_TARGET>
β-catenin in d-U937 cells

>  <OBSERVED_PROPERTY>
% β-catenin induction

>  <RECORDED_NUMBER>
9

$$$$
>  <MOLECULE>
COCC(=O)Nc1cc(Oc2ccc(NC(=O)Nc3cc(C(C)(C)C)nn3-c3ccc(C)cc3)c3ccccc23)ccn1 [Reference Compound, reference compound]

>  <EXPERIMENTAL_TARGET>
β-catenin in d-U937 cells

>  <OBSERVED_PROPERTY>
% β-catenin induction

>  <RECORDED_NUMBER>
208

$$$$
>  <MOLECULE>
C#Cc1cc(Nc2nccc(Oc3ccc(NC(=O)Nc4cc(C(C)(C)C)nn4-c4ccc(C)cc4)c4ccccc34)n2)cc(C(=O)NC(C)(C)CN2CCOCC2)c1

>  <EXPERIMENTAL_TARGET>
β-catenin in d-U937 cells

>  <OBSERVED_PROPERTY>
% β-catenin induction

>  <RECORDED_NUMBER>
0

$$$$
>  <MOLECULE>
COc1cc(Nc2cc(Oc3ccc(NC(=O)Nc4cc(C(C)(C)C)nn4-c4ccc(C)cc4)c4ccccc34)ccn2)cc(C(=O)NCCN2CCOCC2)c1

>  <EXPERIMENTAL_TARGET>
β-catenin in d-U937 cells

>  <OBSERVED_PROPERTY>
% β-catenin induction

>  <RECORDED_NUMBER>
−7

$$$$
>  <MOLECULE>
C#Cc1cc(Nc2nccc(Oc3ccc(NC(=O)Nc4cc(C(C)(C)C(F)(F)F)nn4-c4ccc(C)cc4)c4ccccc34)n2)cc(C(=O)NCCN2CCOCC2)c1

>  <EXPERIMENTAL_TARGET>
β-catenin in d-U937 cells

>  <OBSERVED_PROPERTY>
% β-catenin induction

>  <RECORDED_NUMBER>
−3

$$$$
>  <MOLECULE>
C#Cc1cc(Nc2nccc(Oc3ccc(NC(=O)Nc4cc(C(C)(C)C)nn4-c4ccc(C)cc4)c4ccccc34)n2)cc(C(=O)NCCN2CCOCC2)c1

>  <EXPERIMENTAL_TARGET>
β-catenin in d-U937 cells

>  <OBSERVED_PROPERTY>
% β-catenin induction

>  <RECORDED_NUMBER>
−14

$$$$
>  <MOLECULE>
COCCNC(=O)c1cc(Nc2nccc(Oc3ccc(NC(=O)Nc4cc(C(C)C)nn4-c4ccc(OC)cc4)c4ccccc34)n2)cc(OC)c1

>  <EXPERIMENTAL_TARGET>
β-catenin in d-U937 cells

>  <OBSERVED_PROPERTY>
% β-catenin induction

>  <RECORDED_NUMBER>
−1

$$$$
>  <MOLECULE>
C#Cc1cc(Nc2nccc(Oc3ccc(NC(=O)Nc4cc(C(C)(C)C)nn4-c4ccc(OC)nc4)c4ccccc34)n2)cc(C(=O)NCCN2CCOCC2)c1

>  <EXPERIMENTAL_TARGET>
β-catenin in d-U937 cells

>  <OBSERVED_PROPERTY>
% β-catenin induction

>  <RECORDED_NUMBER>
17

$$$$
>  <MOLECULE>
C#Cc1cc(Nc2nccc(Oc3ccc(NC(=O)Nc4cc(C(C)(C)C)nn4-c4ccc(C)cc4)c4ccccc34)n2)cc(C(=O)N[C@@H](C)CN2CCOCC2)c1

>  <EXPERIMENTAL_TARGET>
β-catenin in d-U937 cells

>  <OBSERVED_PROPERTY>
% β-catenin induction

>  <RECORDED_NUMBER>
3

$$$$
>  <MOLECULE>
C#Cc1cc(Nc2nccc(Oc3ccc(NC(=O)Nc4cc(C(C)(C)C)nn4-c4ccc(OC)cc4)c4ccccc34)n2)cc(C(=O)NCCOC)c1

>  <EXPERIMENTAL_TARGET>
β-catenin in d-U937 cells

>  <OBSERVED_PROPERTY>
% β-catenin induction

>  <RECORDED_NUMBER>
3

$$$$
>  <MOLECULE>
C#Cc1cc(Nc2nccc(Oc3ccc(NC(=O)Nc4cc(C(C)(C)C)nn4-c4ccc(OC)cc4)c4ccccc34)n2)cc(C(=O)N[C@@H](C)COC)c1

>  <EXPERIMENTAL_TARGET>
β-catenin in d-U937 cells

>  <OBSERVED_PROPERTY>
% β-catenin induction

>  <RECORDED_NUMBER>
7

$$$$
>  <MOLECULE>
C#Cc1cc(Nc2nccc(Oc3ccc(NC(=O)Nc4cc(C(C)(C)C)nn4-c4ccc(C)cc4)c4ccccc34)n2)cc(C(=O)N[C@H](C)CN2CCOCC2)c1

>  <EXPERIMENTAL_TARGET>
β-catenin in d-U937 cells

>  <OBSERVED_PROPERTY>
% β-catenin induction

>  <RECORDED_NUMBER>
−3

$$$$

---

Test: Pharmacokinetics, plasma and total colon tissue distribution in rats
Format: in vivo, male Wistar rats
Conditions: male, Wistar, plasma; Rat, intravenous 0.25 mg/kg

>  <COMPOUND>
C#Cc1cc(Nc2nccc(Oc3ccc(NC(=O)Nc4cc(C(C)(C)C)nn4-c4ccc(OC)cc4)c4ccccc34)n2)cc(C(=O)NCCN2CCOCC2)c1 [Example 77]

>  <UNITS_SYMBOL>
L/kg

>  <Vd>
0.1

$$$$

---

Experiment: Plasma pharmacokinetics in beagle dogs
Format: in vivo, male beagle dogs
Settings: male, beagle, plasma; Dog, intravenous 0.05 mg/kg

>  <CPD_SMILES>
C#Cc1cc(Nc2nccc(Oc3ccc(NC(=O)Nc4cc(C(C)(C)C)nn4-c4ccc(OC)cc4)c4ccccc34)n2)cc(C(=O)NCCN2CCOCC2)c1

>  <AUC(0-t) / ng·h/mL>
33.6

$$$$
